Reference source for all entries: patent US9018216B2

# measurement_protocol: Rat oral pharmacokinetic study
# Type: in vivo, Sprague Dawley rats
# condition: male, Sprague Dawley, plasma, po, 30 mg/kg, Compound W oral 30 mg/kg, 0.5% MC, plasma analyte, read-out: AUCextrap
outcome_measure: AUC

[
  {
    "compound": "CCNC(=O)Nc1nc2cc(-c3cnc(C(C)(C)OP(=O)([O-])[O-])nc3)c(F)c([C@H]3CCCO3)c2[nH]1.[Na+].[Na+] [Compound W]",
    "outcome_measure": "AUC",
    "reported_result": "58 ng·h/mL"
  }
]

----------
pKi: −log10 of the molar value.
The compounds below have reported pKi for S. aureus DNA gyrase (Staphylococcus aureus).

[
  {
    "compound": "CCNC(=O)Nc1nc2cc(-c3cnc(C(C)(C)OP(=O)(O)O)nc3)c(F)c([C@H]3CCCO3)c2[nH]1 [Form B]",
    "bound_sign": ">",
    "pKi": 7.60
  },
  {
    "compound": "CCNC(=O)Nc1nc2cc(-c3cnc(C(C)(C)OP(=O)(O)O)nc3)c(F)c([C@H]3CCCO3)c2[nH]1 [Form A]",
    "bound_sign": "=",
    "pKi": 7.59
  },
  {
    "compound": "CCNC(=O)Nc1nc2cc(-c3cnc(C(C)(C)OP(=O)(O)O)nc3)c(F)c([C@H]3CCCO3)c2[nH]1 [Form C]",
    "bound_sign": "=",
    "pKi": 7.57
  }
]

----------
# measurement_protocol: Rat oral pharmacokinetic study
# Type: in vivo, Sprague Dawley rats
# condition: male, Sprague Dawley, plasma, po, 300 mg/kg, Compound W oral 300 mg/kg, 20% CAPT, 1% HPMC-AS, 1% PVP, plasma analyte, read-out: AUCextrap
# Text: Plasma concentration vs. time data was subjected to noncompartmental pharmacokinetic (PK) analysis.
outcome_measure: AUC (ng·h/mL)

[
  {
    "compound": "CCNC(=O)Nc1nc2cc(-c3cnc(C(C)(C)OP(=O)([O-])[O-])nc3)c(F)c([C@H]3CCCO3)c2[nH]1.[Na+].[Na+] [Compound W]",
    "reported_result": 4270
  }
]

----------
# measurement_protocol: Rat oral pharmacokinetic study
# Format: in vivo, Sprague Dawley rats
# condition: male, Sprague Dawley, plasma, po, 100 mg/kg, Compound W oral 100 mg/kg, 0.5% MC, plasma analyte, read-out: AUCextrap
# From the text: Plasma concentration vs. time data was subjected to noncompartmental pharmacokinetic (PK) analysis.

[
  {
    "molecule_smiles": "CCNC(=O)Nc1nc2cc(-c3cnc(C(C)(C)OP(=O)([O-])[O-])nc3)c(F)c([C@H]3CCCO3)c2[nH]1.[Na+].[Na+]",
    "AUC": "66 ng·h/mL"
  }
]
